Cited source for all entries: patent US8053418B2

MIC values, listed per item
- Test system: Streptococcus pneumoniae IMC B-0919 (PRSP)
- method_description: Antimicrobial activity test (MIC), clinical isolate IMC B-0919
- Type: cell-based
- recorded_conditions: PRSP clinical isolate IMC B-0919
parameter_measured: MIC (µg/mL)

[[record]]
compound = "CCC1OC(=O)CCC(C)C(OC2OC(C)CC(N(C)C)C2O)C(CC=O)CC(C)C(=O)C=CC(C)=CC1CN=[N+]=[N-] (stereo not shown)"
unit_name = "µg/mL"
observed_value = 0.2

[[record]]
compound = "C=CCOCC1C=C(C)C=CC(=O)C(C)CC(CC=O)C(OC2OC(C)CC(N(C)C)C2O)C(C)CCC(=O)OC1CC (stereo not shown)"
unit_name = "µg/mL"
observed_value = 0.1

[[record]]
compound = "CCC1OC(=O)CCC(C)C(OC2OC(C)CC(N(C)C)C2O)C(CC=O)CC(C)C(=O)C=CC(C)=CC1CNC(C)=O (stereo not shown)"
unit_name = "µg/mL"
observed_value = 0.78

[[record]]
compound = "CCC1OC(=O)CCC(C)C(OC2OC(C)CC(N(C)C)C2O)C(CC=O)CC(C)C(=O)C=CC(C)=CC1COC(C)=O (stereo not shown)"
unit_name = "µg/mL"
observed_value = 0.1

[[record]]
compound = "CCC1OC(=O)CCC(C)C(OC2OC(C)CC(N(C)C)C2O)C(CC=O)CC(C)C(=O)C=CC(C)=CC1CN (stereo not shown)"
unit_name = "µg/mL"
observed_value = 0.78

[[record]]
compound = "CCC1OC(=O)CCC(C)C(OC2OC(C)CC(N(C)C)C2O)C(CC=O)CC(C)C(=O)C=CC(C)=CC1CI (stereo not shown)"
unit_name = "µg/mL"
observed_value = 0.39

[[record]]
compound = "CCC1OC(=O)CCC(C)C(OC2OC(C)CC(N(C)C)C2O)C(CC=O)CC(C)C(=O)C=CC(C)=CC1CNC(=O)c1ccccc1 (stereo not shown)"
unit_name = "µg/mL"
observed_value = 0.2

